B1: library; numbered along this chain (parent)
chain: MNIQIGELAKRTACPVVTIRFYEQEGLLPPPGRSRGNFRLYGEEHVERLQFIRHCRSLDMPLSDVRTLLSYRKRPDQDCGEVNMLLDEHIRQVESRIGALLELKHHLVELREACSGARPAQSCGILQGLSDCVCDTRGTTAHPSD

- Variants of: B1
- methodSummary: sfGFP reporter fluorescence (15 h) (µM FITC); higher = stronger transcriptional activation
- assayConditions: library round: Round 0; ligand: 1 µM Pb
measurementName: sfGFP reporter fluorescence

chain	measurementName	observed
MNIQIGELAKRTACPVVTIRFYEQEGLLPPPGRSRGNFRLYGEEHVERLQFIRHCRSLDMPLSDVRTLLSYRKRPDQDCGEVTMLLDEHIRQVESRIGALLELKHHLVELREACSGARPAQSCGILQGLSDCVCDTRGTTAHPSD [N83T]	sfGFP reporter fluorescence	0.0759
MNIQIGELAKRTACPVVTIRFYEQEGLLPPPGRSRGNFRLYGEEHVERLQFIRHCRSLDMPLSDVRTLLSYRKRPDQDCGEVNMLLDEHLRQVESRIGALLELKHHLVELREACSGARPAQSCGILQGLSDCVCDTRGTTAHPSD [I90L]	sfGFP reporter fluorescence	0.0583
MNIQIGELAKRTACPVVTIRFYEQEGLLPPPGRSRGNFRLYGEEHVERLQFIRHCRSLDMPLSDVRTLLSYRKRPDQDCGEVNMLLDEHIRQVESRIGALLELKHHLVELREACSGARPAQSCGILQGPSDCVCDTRGTTAHPSD [L129P]	sfGFP reporter fluorescence	0.055

Requested read-out: sfGFP reporter fluorescence. Entry: MNIQIGELAKRTACPVVTIRFYEQEGKLPPPGRSRGNFRLYGEEHVERLQFIRHCRSLDMPLSDVRTLLSYRKRPDQDCGEVNMLLDEHIRQVESRIGALLELKHHLVELREACSGARPAQSCGILQGLSDCVCDTRGTTAHPSD [L27K]
0.0608

Next entry: MNIQIGELAKRTACPVVTIRFYEQEGLLPPPGRSRGNFRLYGEEHVERLQFIRHCRSQDMPLSDVRTLLSYRKRPDQDCGEVNMLLDEHIRQVESRIGALLELKHHLVELREACSGARPAQSCGILQGLSDCVCDTRGTTAHPSD [L58Q]
0.059

Now consider MNIQIGELAKRTACPVVTIRFYEQEGLLPPPGRSRGNFRLPGEEHVERLQFIRHCRSLDMPLSDVRTLLSYRKRPDQDCGEVNMLLDEHIRQVESRIGALLELKHHLVELREACSGARPAQSCGILQGLSDCVCDTRGTTAHPSD [Y41P] .
0.0597

Repeat for the following variant: MNIQIGELAKRTACPVVTIRFYEQEGLLPPPGRSRGNFRLYGEEHVERLQFIRHCRSLDMPLSDVRTLLSYRKRPDQDCGEVNMLLDESIRQVESRIGALLELKHHLVELREACSGARPAQSCGILQGLSDCVCDTRGTTAHPSD [H89S]
0.0579

Okay, and MNIQIGELAKRTACPVVTIRIYEQEGLLPPPGRSRGNFRLYGEEHVERLQFIRHCRSLDMPLSDVRTLLSYRKRPDQDCGEVNMLLDEHIRQVESRIGALLELKHHLVELREACSGARPAQSCGILQGLSDCVCDTRGTTAHPSD [F21I] ?
0.0575

Entry to check: MNIQIGELAKRTACPVVTIRFYEQEGLLPPPGRSRGNFRLYGEEHVERLQFIRHCRSLDMPLSDVRTLLSYRKRPDQDCGEVNMLLDEHIRQVESRIGALLELKHHLVELREACSGARPAQSCGILQGLSDCVCVTRGTTAHPSD [D135V]
0.081
